// provenance: patent US8680275B2

- MEASURED TARGET: human orexin 1 receptor (Homo sapiens (Human), UniProt O43613)
- Sequence (O43613 whole entry): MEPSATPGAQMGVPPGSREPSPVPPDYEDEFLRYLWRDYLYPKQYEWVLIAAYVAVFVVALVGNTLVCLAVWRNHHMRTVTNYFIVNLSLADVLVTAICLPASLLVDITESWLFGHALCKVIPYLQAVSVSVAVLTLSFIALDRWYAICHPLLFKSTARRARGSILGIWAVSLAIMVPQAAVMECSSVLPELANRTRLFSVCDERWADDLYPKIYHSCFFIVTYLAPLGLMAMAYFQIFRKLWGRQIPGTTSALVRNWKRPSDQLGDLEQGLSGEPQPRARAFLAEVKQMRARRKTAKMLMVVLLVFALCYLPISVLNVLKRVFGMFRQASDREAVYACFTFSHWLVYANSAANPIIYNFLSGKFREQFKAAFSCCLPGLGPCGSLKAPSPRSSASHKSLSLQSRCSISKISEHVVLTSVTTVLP
- MEASUREMENT NOTES: Human orexin 1 receptor radioligand binding ([3H]-SB674042 competition)
- EXPERIMENTAL PARAMETERS: CHO cells stably expressing human orexin 1 receptor; [3H]-SB674042 4 nM final; read-out: OR-1 Ki
pKi: −log10 of the molar value.
Decide by pKi: equal to or exceeding 6 means criterion met, less means criterion not met.

Known results for compounds:
Cc1cc(C)nc(N2C[C@@H]3CCN(C(=O)c4cccnc4C(F)(F)F)C[C@@H]32)n1 [Example 89] = criterion not met
Cc1cc(N2C[C@@H]3CCN(C(=O)c4c(F)cccc4-n4nccn4)C[C@@H]32)nc(C(F)(F)F)n1 [Example 32] = criterion met
Cc1cnc(-n2ccnn2)c(C(=O)N2CC[C@H]3CN(c4nc(C)cc(C)n4)[C@H]3C2)c1 [Example 161] = criterion not met
Cc1cc(C)nc(N2C[C@@H]3CCN(C(=O)c4ccccc4-c4ncccn4)C[C@@H]32)n1 [Example 28] = criterion met
Cc1nc(N2C[C@@H]3CCN(C(=O)c4ccccc4-n4nccn4)C[C@@H]32)nc(C)c1C [Example 270] = criterion met

Now turn to the next compound.
Enquiry: Textbook exercise: given the entry Cc1cc(C)nc(N2C[C@@H]3CCN(C(=O)c4c(F)cccc4-n4nccn4)C[C@@H]32)n1 [Example 29] , state whether its pKi is greater than or equal to 6.
Return: criterion met
